assay: activity coefficient (dimensionless); of the first substance listed, at infinite dilution; xn = mol fraction of the nth substance listed; settings: 309.99 K; Liquid; Gas Stripping Method; x1 = 0
OBSERVABLE: activity coefficient
When you answer, write just the number.

Guide cases for activity coefficient, answers given:
CC(C)C [2-methylpropane] + Cc1cccc(O)c1 | 7.87
CCCC [butane] + Cc1ccccc1O | 6.61
C=CC [propene] + Cc1cccc(O)c1 | 4.05

Now turn to the next molecule.
Challenge: Hello, please tell me recorded activity coefficient for this one: CCCC [butane] + Cc1ccc(O)cc1
Response given: 6.88

----------
test: activity coefficient (dimensionless); of the first substance listed, at infinite dilution; xn = mol fraction of the nth substance listed; details: 329.99 K; Liquid; Gas Stripping Method; x1 = 0
Below, each entry is listed with its recorded activity coefficient.
When you answer, write just the number.

Guide cases for activity coefficient, answers given:
C/C=C/C [(E)-2-butene] + Cc1cccc(O)c1 | 4.23
CCCl [chloroethane] + Cc1cccc(O)c1 | 1.93
C=CCC [1-butene] + Cc1ccc(O)cc1 | 4.4
CC(C)C [2-methylpropane] + Cc1ccccc1O | 6.73
C/C=C\C [(Z)-2-butene] + Cc1ccc(O)cc1 | 3.91
COC [dimethyl ether] + Cc1cccc(O)c1 | 0.2
CCC [propane] + Cc1cccc(O)c1 | 5.88
CCCl [chloroethane] + Cc1ccccc1O | 1.7
CC(F)F [1,1-difluoroethane] + Cc1ccc(O)cc1 | 4.07
COC [dimethyl ether] + Cc1ccccc1O | 0.18

Challenge: Hello, please tell me recorded activity coefficient for this one: C=C(C)C [2-methylpropene] + Cc1ccccc1O
Response given: 3.7

Challenge: Hello, please tell me recorded activity coefficient for this one: CC(C)C [2-methylpropane] + Cc1ccc(O)cc1
Response given: 7.3

Challenge: Hello, please tell me recorded activity coefficient for this one: CC(F)F [1,1-difluoroethane] + Cc1ccccc1O
Response given: 3.49

Challenge: Hello, please tell me recorded activity coefficient for this one: CCCC [butane] + Cc1ccccc1O
Response given: 5.92

Challenge: Hello, please tell me recorded activity coefficient for this one: C/C=C\C [(Z)-2-butene] + Cc1cccc(O)c1
Response given: 3.88

Challenge: Hello, please tell me recorded activity coefficient for this one: C=CC=C [1,3-butadiene] + Cc1cccc(O)c1
Response given: 3.05
